System: HT-29 (colon cancer cell)
experimental protocol: In vitro anti-tumor cellular activity (MTT), HT-29
Type: cell-based
setup conditions: 72 hours
For each of the compounds below, state its HT-29 IC50.
Please respond with the number in µg/mL and leave the unit unwritten.

HT-29 IC50 reading for `COc1cc2c(Oc3ccc(NC(=S)NN=Cc4ccc(Cl)cc4Cl)cc3F)ccnc2cc1OCCCN1CCN(C)CC1` : 1.9

Notebook: `COc1cc2c(Oc3ccc(NC(=S)N/N=C/c4ccccc4)cc3F)ccnc2cc1OCCCN1CCN(C)CC1` , HT-29 IC50 read as 0.94

Memo: `COc1cc2c(Oc3ccc(NC(=S)N/N=C/c4ccccc4)cc3F)ccnc2cc1OCCCN1CCCC1` , reported HT-29 IC50: 0.012

Value of HT-29 IC50 reported for the compound `COc1cc2c(Oc3ccc(NC(=S)N/N=C/c4ccccc4)cc3F)ccnc2cc1OCCCN1CCOCC1` is 0.28

Documented HT-29 IC50 of `COc1cc2c(Oc3ccc(C=NNC(=S)Nc4ccc(Cl)c(C(F)(F)F)c4)cc3F)ccnc2cc1OCCCN1CCC(C)CC1` : 0.34

Measured HT-29 IC50 of `COc1cc2c(Oc3ccc(NC(=S)N/N=C/c4ccccc4)cc3F)ccnc2cc1OCCCN1CCC(C)CC1` : 0.13

Field HT-29 IC50 (entry `COc1cc2c(Oc3ccc(NC(=O)N/N=C/c4ccc(Cl)cc4Cl)cc3F)ccnc2cc1OCCCN1CCCC1` ) reads 1.4

----------
Please go through the items and note down their MKN-45 IC50.
Test system: MKN-45 (human gastric carcinoma cell)
experimental protocol: In vitro anti-tumor cellular activity (MTT), MKN-45
Type: cell-based
setup conditions: 72 hours
Method: After pouring the cell dissociation buffer to the centrifugetube, nutrient solution was added to stop digestion. The centrifugetube were centrifuged for 10 min under 800 r/min, the liquid supernatant was removed, 5 mL culture solution was added, after mixing by pipetting the cell, took 10 μL cell suspension to the cell counting plat, and adjusted the cell concentration to 10^4/well. Among the 96 wells, A1 is empty, 100 μL of cell suspension were added to the other wells. […]
# number only, unit µg/mL dropped from output

The value of MKN-45 IC50 measured for the compound `COc1cccc(/C=N/NC(=O)Nc2ccc(Oc3ccnc4cc(OCCCN5CCC(C)CC5)c(OC)cc34)c(F)c2)c1` turned out to be 0.0021

The compound `COc1cc2c(Oc3ccc(NC(=S)N/N=C/c4ccccc4)cc3F)ccnc2cc1OCCCN1CCC(C)CC1` showed MKN-45 IC50 equal to 0.56

What the record says about `COc1cc2c(Oc3ccc(NC(=S)N/N=C/c4ccccc4)cc3F)ccnc2cc1OCCCN1CCCC1` : MKN-45 IC50 is 0.11

# compound `COc1cc2c(Oc3ccc(/C=N/NC(=S)Nc4cccc(Br)c4)cc3F)ccnc2cc1OCCCN1CCOCC1` ; its MKN-45 IC50 = 4.8

Consider `COc1cc2c(Oc3ccc(C=NNC(=O)Nc4cccc(Br)c4)cc3F)ccnc2cc1OCCCN1CCOCC1` . Its measured MKN-45 IC50 is 2.0

# compound `COc1cc2c(Oc3ccc(NC(=O)N/N=C/c4ccc(Cl)cc4Cl)cc3F)ccnc2cc1OCCCN1CCCC1` ; its MKN-45 IC50 = 0.71

Looking up `COc1cc2c(Oc3ccc(NC(=O)N/N=C(\C)c4ccccc4)cc3F)ccnc2cc1OCCCN1CCCCC1` , I see its MKN-45 IC50 listed as 0.072

Reported MKN-45 IC50 for `COc1cc2c(Oc3ccc(NC(=O)N/N=C/c4ccccc4)cc3F)ccnc2cc1OCCCN1CCN(C)CC1` was 0.11

Data point: `COc1cc2c(Oc3ccc(NC(=S)N/N=C/c4ccccc4[N+](=O)[O-])cc3F)ccnc2cc1OCCCN1CCCC1` ; MKN-45 IC50 = 0.33

response.value for `COc1cc2c(Oc3ccc(NC(=O)N/N=C/c4ccccc4)cc3F)ccnc2cc1OCCCN1CCOCC1` (field: MKN-45 IC50) = 0.12

Form: compound = `COc1cc2c(Oc3ccc(NC(=O)N/N=C/c4ccc(F)c(F)c4)cc3F)ccnc2cc1OCCCN1CCCC1` ; MKN-45 IC50 = 0.37

Short answer for `COc1cc2c(Oc3ccc(NC(=S)NN=Cc4ccc(F)cc4Cl)cc3F)ccnc2cc1OCCCN1CCN(C)CC1` : MKN-45 IC50 was 0.34
